- Test target: KDR (phospho-KDR, VEGF165-stimulated HUVEC cells) (Homo sapiens (Human))
- Sequence (P35968 20-1356): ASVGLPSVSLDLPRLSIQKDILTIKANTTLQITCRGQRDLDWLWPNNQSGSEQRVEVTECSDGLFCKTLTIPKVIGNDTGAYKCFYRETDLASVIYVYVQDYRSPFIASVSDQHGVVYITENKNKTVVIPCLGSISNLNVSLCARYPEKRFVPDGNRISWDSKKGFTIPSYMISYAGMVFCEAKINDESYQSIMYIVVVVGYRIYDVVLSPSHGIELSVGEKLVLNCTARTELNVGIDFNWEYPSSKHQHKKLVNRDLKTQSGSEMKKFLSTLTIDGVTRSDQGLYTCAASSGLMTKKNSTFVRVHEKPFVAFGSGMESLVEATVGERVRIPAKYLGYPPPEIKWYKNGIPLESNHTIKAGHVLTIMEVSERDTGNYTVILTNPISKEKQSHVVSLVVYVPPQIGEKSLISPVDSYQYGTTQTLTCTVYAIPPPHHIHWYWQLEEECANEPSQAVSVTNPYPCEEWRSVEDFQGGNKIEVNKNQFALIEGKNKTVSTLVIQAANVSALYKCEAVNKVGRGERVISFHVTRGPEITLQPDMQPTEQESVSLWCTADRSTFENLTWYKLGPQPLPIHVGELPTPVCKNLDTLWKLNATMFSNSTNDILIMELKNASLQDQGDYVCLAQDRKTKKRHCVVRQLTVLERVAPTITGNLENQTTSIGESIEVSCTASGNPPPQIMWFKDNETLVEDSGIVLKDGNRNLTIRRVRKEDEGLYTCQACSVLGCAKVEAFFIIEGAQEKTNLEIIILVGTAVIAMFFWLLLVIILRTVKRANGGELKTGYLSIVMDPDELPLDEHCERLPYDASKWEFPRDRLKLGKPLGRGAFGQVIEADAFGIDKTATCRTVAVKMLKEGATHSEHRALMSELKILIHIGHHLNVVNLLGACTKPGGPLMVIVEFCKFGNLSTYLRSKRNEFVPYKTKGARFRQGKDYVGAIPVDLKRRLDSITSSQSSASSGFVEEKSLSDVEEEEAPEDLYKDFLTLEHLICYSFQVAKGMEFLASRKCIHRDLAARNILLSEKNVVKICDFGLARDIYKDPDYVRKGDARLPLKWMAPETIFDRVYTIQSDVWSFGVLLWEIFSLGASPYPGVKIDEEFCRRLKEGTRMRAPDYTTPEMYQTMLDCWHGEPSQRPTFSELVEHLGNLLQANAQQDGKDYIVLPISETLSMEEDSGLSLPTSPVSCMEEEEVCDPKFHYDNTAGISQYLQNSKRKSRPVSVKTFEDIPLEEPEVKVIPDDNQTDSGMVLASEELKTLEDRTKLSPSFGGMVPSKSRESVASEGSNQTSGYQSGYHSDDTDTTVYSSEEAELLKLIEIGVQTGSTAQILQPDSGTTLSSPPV
- Assay text: KDR autophosphorylation ELISA in HUVEC cells (Example G)
- Format: cell-based
- Particulars: cellular activity; KDR autophosphorylation ELISA in HUVEC cells
- Procedure: Human umbilical vein endothelial cells or HUVEC (Lonza #C2519A) were seeded at 2×10^4 cells/well onto 96-well plates (Corning #3904), in EGM-2 growth medium (Lonza #CC-3162) containing 1% Penicillin Streptomycin (Thermo Fisher #15140-122). […] IC50 values were calculated by nonlinear regression analysis using a 4-parameter logistic curve fit in ActivityBase XE (IDBS).
# IC50 per record follows

Prompt line: Return reported IC50; argument: COc1cc2nccc(Oc3ccc(NC(=O)c4cc(C(C)C)c(C)n(-c5ccc(F)cc5)c4=O)cc3F)c2nc1OC [Compound 368]
Response line: < 0.1 µM

Continuing:
Prompt line: # get_value(readout='IC50', item= C=C(C)c1cnc2c(Oc3ccc(NC(=O)c4c(C)nc(C)n(-c5ccc(F)cc5)c4=O)cc3F)ccnc2c1 [Compound 466] )
Response line: < 0.1 µM

Prompt line: // IC50 lookup, key: COc1cnc2c(Oc3ccc(NC(=O)c4c(C)n(C)c(C)c(-c5ccc(F)cc5C)c4=O)cc3F)ccnc2c1 [Compound 771]
Response line: > 0.3 µM

Prompt line: Suppose we examine the compound Cc1cc(F)ccc1-c1c(C)nnc(C(=O)Nc2ccc(Oc3ccnc4cc(C)c(F)nc34)c(F)c2)c1O [Compound 430] ; what IC50 value has been reported?
Response line: > 0.3 µM

Prompt line: # lookup: IC50 of COc1cc2nccc(Oc3ccc(NC(=O)c4cnc(C)c(-c5ccc(F)cc5C)c4O)cc3)c2nc1OC [Compound 174]
Response line: < 0.1 µM

Prompt line: May I ask what IC50 has been recorded for COc1cc2nccc(Oc3ccc(NC(=O)c4cnc(N(C)C)n(-c5ccc(F)cc5)c4=O)cc3F)c2nc1OC [Compound 100] ?
Response line: < 0.1 µM
